- target_under_test: monoclonal antibody mAB 198
- protocol: peptide microarray, fluorescence, cyclic peptide
Where no end group is shown, it is not given here.
Mark 0 (no) for relative signal [%] values under 10%, and 1 (yes) for everything at or above.

binder: GGSLRFNPADY (also: cyclic peptide, mode of cyclisation not given here)
classification: 1 (yes)
//
binder: RLRGNPADYGG (also: cyclic peptide, ring type and places not given here)
classification: 0 (no)
//
binder: QLRWNPADY (also: cyclic peptide, ring type and places not given here)
classification: 1 (yes)
//
binder: VRLRLNPADYG (also: cyclic peptide, mode of cyclisation not given here)
classification: 0 (no)
//
binder: DVRLRWNPSDY (also: cyclic peptide, mode of cyclisation not given here)
classification: 1 (yes)
//
binder: DVRLRYNPADY (also: cyclic peptide, mode of cyclisation not given here)
classification: 1 (yes)
//
binder: VNPADYG (also: cyclic peptide, mode of cyclisation not given here) [VNPADYG, cyclic mimotope]
classification: 1 (yes)
//
binder: RWNPADF (also: cyclic peptide, ring type and places not given here) [RWNPADF, cyclic mimotope]
classification: 0 (no)
//
binder: RLRYNPADY (also: cyclic peptide, ring type and places not given here)
classification: 1 (yes)
